Assay: plasmodial surface anion channel blockers, osmotic lysis – cell-based, P. falciparum Indochina, OD700, 1 h, primary screen (AID 1154)
Details: P. falciparum Indochina infected RBC osmotic lysis, higher = more signal, called active from +8 up or from −8 down
Active and inactive are the calls of the source.
measuredMetric: z-score

[[record]]
compound = "CCCNC(=O)[C@@]1(Sc2ccc(C)cc2)CC(=O)N(Cc2ccccc2C(F)(F)F)[C@@H]1c1ccc(CO)cc1I"
observedmeasurement = "5.14 (inactive)"

[[record]]
compound = "C=C(C(=O)CC[C@H](OC(C)=O)c1ccccc1OCCO)C(C)C"
observedmeasurement = "2.27 (inactive)"

[[record]]
compound = "C=CC[C@@]1(C(=O)N2CCCCC2)N=C(c2ccc(OCCCO)cc2)O[C@@H]1c1ccccc1N=[N+]=[N-]"
observedmeasurement = "31.2 (active)"

[[record]]
compound = "C=CCC(OC(C)=O)[C@@H]1[C@@H](N(Cc2ccc(-c3cccc(C(F)(F)F)c3)o2)C(=O)Cc2ccc(OC)cc2)c2cc(OCCCO)ccc2N1C(=O)c1ccc2ccccc2c1 (some centres undefined)"
observedmeasurement = "1.35 (inactive)"

